The reported numbers originate from PubChem BioAssay (Tox21).

methodDescription: qHTS assay to identify small molecule antagonists of the estrogen related receptor (ERR) signaling pathway from Tox21 library (AID 1224848); also: nearly all actives have a fitted effect of over 50% in size
experimentalParameters: ERR reporter cell line, luciferase antagonist mode, 18 h; series mostly up to 92.4 µM
Excerpt: U.S. Tox21 Program National Center for Advancing Translational Sciences [NCATS] NIH Chemical Genomics Center [NCGC] U.S. Environmental Protection Agency [EPA] National Institutes of Environmental Health Sciences [NIEHS] National Toxicology Program [NTP] U.S. Food and Drug Administration [FDA] Tox21 Assay Overview: Estrogen related receptors (ERRs), the first orphan nuclear receptors discovered, play an important role in the control of cellular energy metabolism. […]
Records with an inconclusive call do not appear. Activity calls are given as the source filed them. Calls follow the shape of the dose curve; as a rule, active = well fitted inhibition curve with a large enough effect in the repeat runs; inconclusive = weak or mixed curves; inactive = no such curve, though single readings can be large or run the other way.
Bench note: report the call from yes (active), no (inactive)

The following molecules have reported results that may help.
// outcome(item) with item = `O=C(OCCCCCOC(=O)c1ccccc1)c1ccccc1`
no

Same again, this time with CC(O)CN (stereo unspecified)
no

Same again, this time with `CC(C)CCCCCCCOC(=O)c1ccc(C(=O)OCCCCCCCC(C)C)c(C(=O)OCCCCCCCC(C)C)c1`
no

Same again, this time with `NCCOCCOCCN`
no

Same again, this time with `CC(C)C[C@H](NC(=O)[C@H](Cc1ccccc1)NC(=O)c1cnccn1)B(O)O`
yes

Same again, this time with `O=C(O)c1cc(C(=O)O)c(C(=O)O)cc1C(=O)O`
no

New cases:
// outcome(item) with item = `CCCCCCCCCCCCSCCOCCO`
no

Same again, this time with CC(CC(C#N)(c1ccccc1)C(C)C)N(C)C (stereo unspecified)
no

Same again, this time with CCC1=C(C)CN(C(=O)NCCc2ccc(S(=O)(=O)NC(=O)NC3CCC(C)CC3)cc2)C1=O (stereo unspecified)
no

Same again, this time with `O=C(N[C@@H](Cc1ccccc1)[C@@H](O)C(=O)N1C[C@@H](O)[C@@H](O)C1)c1cc2cc(Cl)ccc2[nH]1`
yes
